B1: library; a variant is named by its letters at N, in order (parent)
chain: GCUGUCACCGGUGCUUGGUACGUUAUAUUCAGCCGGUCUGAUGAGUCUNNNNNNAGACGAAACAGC

- Variants of: B1
- procedure details: normalized RNA/DNA level with ligand (relative to sTRSVctl = 100) (log10 (% of sTRSVctl)); HEK293T overexpressing SLC46A1; ligand concentration (+) RNA-Seq: 6 mM; higher = less ribozyme self-cleavage, higher mRNA level
- condition label: with (6R,S)-folinic acid; ligand present: yes
Recorded normalized RNA/DNA level with ligand (log10) values for a group of variants are listed next.
// return a plain number; no unit text

# count of solved cases: 8
variant_descriptor=CAGCGG number=2.06
variant_descriptor=UGUGGC number=2.02
variant_descriptor=CCUGAA number=2
variant_descriptor=GCGCAG number=2.03
variant_descriptor=GACUCA number=1.98
variant_descriptor=CUAAAA number=1.98
variant_descriptor=CAACAA number=1.99
variant_descriptor=GGAAGC number=1.99

// switching to the query variant
Input "UCGCAU" . Output normalized RNA/DNA level with ligand (log10): 2
